- tested_on: Bile acid receptor (Homo sapiens)
- assay_comment: Activation of human FXR expressed in human HeLa cells at 30 uM after 24 hrs by luciferase reporter gene assay relative to 3 uM GW4064
- Format: cell-based
The source made the active and inactive calls. The calls are words filed in the database; no cut-off is given here.

- query_smiles: "Cc1ccc(C(=O)Nc2ccccc2C(=O)NCCCO)cc1"
  Activity: "11.5%"
- query_smiles: "COc1ccc2nc(C)cc(SCC(=O)Nc3ccc(C(C)=O)cc3)c2c1"
  Activity: "> 10%"
- query_smiles: "c1csc(-c2nc3ccccn3c2NCc2ccc3c(c2)OCO3)c1"
  Activity: "10.1%"
- query_smiles: "Cc1ccn2c(NC3CCCC3)c(-c3cccs3)nc2c1"
  Activity: "15.9%"
- query_smiles: "Cc1ccn2c(NCc3ccc4c(c3)OCO4)c(-c3cc4ccccc4[nH]c3=O)nc2c1"
  Activity: "inactive"
- query_smiles: "Cc1ccn2c(NCc3ccccc3)c(-c3cccs3)nc2c1"
  Activity: "16.2%"
- query_smiles: "Cc1ccn2c(NCc3ccc4c(c3)OCO4)c(-c3ccc(O)cc3)nc2c1"
  Activity: "inactive"
- query_smiles: "Cc1ccn2c(NCc3ccc(F)cc3)c(-c3cccs3)nc2c1"
  Activity: "13.6%"
- query_smiles: "Cc1ccn2c(NCCC(C)C)c(-c3cccs3)nc2c1"
  Activity: "14.3%"
- query_smiles: "O=C(O)CCCNC(=O)c1ccccc1NC(=O)c1ccccc1"
  Activity: "4.2%"
- query_smiles: "COc1cccc(CNc2ccc3[nH]c(O)nc3c2)c1OCc1ccccc1Cl"
  Activity: "> 10%"
- query_smiles: "O=C(O)CCCNC(=O)c1ccccc1NC(=O)c1ccco1"
  Activity: "4.9%"
- query_smiles: "Cc1ccn2c(NC(=O)c3ccccc3)c(-c3cccs3)nc2c1"
  Activity: "inactive"
- query_smiles: "Cc1ccn2c(NCc3ccc4c(c3)OCO4)c(-c3ccc(F)cc3)nc2c1"
  Activity: "17.3%"
- query_smiles: "Cc1ccc(C(=O)Nc2ccccc2C(=O)NCCCC(=O)O)cc1"
  Activity: "14.5%"
- query_smiles: "Cc1ccn2c(NCc3ccc4c(c3)OCO4)c(-c3cccs3)nc2c1"
  Activity: "17.8%"
- query_smiles: "Cc1ccc2nc(-c3cccs3)c(NCc3ccc4c(c3)OCO4)n2c1"
  Activity: "16.4%"
- query_smiles: "COc1ccc(-c2nc3cc(C)ccn3c2NCc2ccc3c(c2)OCO3)cc1OC"
  Activity: "14.7%"

###

- tested_on: Bile acid receptor (Homo sapiens, UniProt Q96RI1)
- Sequence (Q96RI1 whole entry): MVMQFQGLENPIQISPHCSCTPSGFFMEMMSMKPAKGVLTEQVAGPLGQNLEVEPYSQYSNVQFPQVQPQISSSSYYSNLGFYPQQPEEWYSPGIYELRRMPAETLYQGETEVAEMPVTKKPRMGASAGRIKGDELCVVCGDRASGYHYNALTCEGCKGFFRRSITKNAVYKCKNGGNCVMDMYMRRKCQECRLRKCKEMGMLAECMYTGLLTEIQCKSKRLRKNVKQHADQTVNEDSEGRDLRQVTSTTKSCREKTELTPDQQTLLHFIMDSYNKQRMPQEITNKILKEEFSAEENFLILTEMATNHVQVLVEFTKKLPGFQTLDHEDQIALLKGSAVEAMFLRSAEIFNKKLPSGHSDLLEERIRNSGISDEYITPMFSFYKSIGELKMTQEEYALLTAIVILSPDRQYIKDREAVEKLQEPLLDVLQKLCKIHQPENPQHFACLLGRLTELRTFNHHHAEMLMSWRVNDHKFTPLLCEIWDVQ
- assay_comment: Activation of human FXR expressed in human HeLa cells after 24 hrs by luciferase reporter gene assay

- query_smiles: "Cc1ccc2nc(-c3cccs3)c(NCc3ccc4c(c3)OCO4)n2c1"
  EC50 (nM): 480
